Target: T1, human IL-2 receptor βγc heterodimer (hIL-2Rβγc), soluble (human, UniProt P14784 27-240; P31785 23-254, biotin on the C-terminal biotin acceptor peptide)
T1 construct: also called HsIL-2Rβγc; hIL-2Rβνc
T1 sequence 1: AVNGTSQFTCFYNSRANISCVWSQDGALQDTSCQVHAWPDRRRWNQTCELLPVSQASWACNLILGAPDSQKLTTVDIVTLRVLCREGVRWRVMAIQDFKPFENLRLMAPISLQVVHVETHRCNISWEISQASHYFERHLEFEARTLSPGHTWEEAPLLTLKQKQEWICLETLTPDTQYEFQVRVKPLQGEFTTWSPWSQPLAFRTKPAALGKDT
T1 sequence 2: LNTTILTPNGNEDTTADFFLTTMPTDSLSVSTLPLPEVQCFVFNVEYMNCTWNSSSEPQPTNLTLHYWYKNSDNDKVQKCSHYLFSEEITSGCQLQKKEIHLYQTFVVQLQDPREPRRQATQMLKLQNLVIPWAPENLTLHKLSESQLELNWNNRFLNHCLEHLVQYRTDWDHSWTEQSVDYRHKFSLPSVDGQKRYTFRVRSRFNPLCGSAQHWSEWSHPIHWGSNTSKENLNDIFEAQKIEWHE
Assay: SPR, equilibrium titration; IL-2Rγ on streptavidin chip, saturating IL-2Rβ in solution
# reported Kd; entries follow

- binder: "G2_neo2_40_1F_dsn36 (designed binder, E. coli, N-terminal 6xHis tag and thrombin site) PKKKIQLLAEHALLDALMILNIVKTNSQNAEEKLEDYASNVEVILEEIARLMESGDQKDEAEKAKRMKEWMKRIKTTASEDEQEEMANRIITLLQSWIFS"
  uom: "nM"
  Kd: 114
- binder: "G1_neo2_43 (designed binder, Single-disulfide stapled variation; In yeast display between Aga2 and a myc tag; also called G1_ne02_43) STKKIQLQLEHALLDVQMALNRSPEPNESLNRMITWLQSCISTGKCDLDNAQEMAKEAEKIRKEMEKRGIDVRDLISNIIVILLELS"
  uom: "nM"
  Kd: 533
- binder: "G1_neo2_40 (designed binder, also called G1_ne02_40) STKKLQLQAEHALLDAQMMLNRSPEPNEKLNRIITTMQSWISTGKIDLDGAKELAKEVEELRQEAEKRGIDVRDLASNLKVILLELA"
  uom: "nM"
  Kd: 260
- binder: "G1_neo2_40_1F (designed binder, also called G1_ne02_40_1F) STKKTQLLAEHALLDALMMLNLLPEPNEKLNRIITTMQSWIFTGKIDGDGAQELAKEVEELEQEHEKRGIDVEDYASNLKVILLELA"
  uom: "nM"
  Kd: 2.3
- binder: "G1_neo2_41 (designed binder, Single-disulfide stapled variation; In yeast display between Aga2 and a myc tag; also called G1_ne02_41) STKKLQLQAEHALLDAQMMLNRSPEPNEKLNRIITTMQSCISTGKCDLDGAKELAKEVEELRQEAEKRGIDVRDLASNLKVILLELA"
  uom: "nM"
  Kd: 187
- binder: "mouse interleukin-2 (mIL-2) (ligand, UniProt P04351 21-169, looked up, range 1-149; Baculovirus expression for SPR; also called MmIL-2; mouse IL-2) APTSSSTSSSTAEAQQQQQQQQQQQQHLEQLLMDLQELLSRMENYRNLKLPRMLTFKFYLPKQATELKDLQCLEDELGPLRHVLDLTQSKSFQLEDAENFISNIRVTVVKLKGSDNTFECQFDDESATVVDFLRRWIAFCQSIISTSPQ"
  uom: "nM"
  Kd: 8030

All values here come from patent US20200339648A1.
